- assay details: Annexin V-FITC/PI apoptosis analysis, A172
- Type: cell-based, human
- measurement setup: human, A172 cells, A172, 1.0 μM, read-out: Viable cells
For each of the compounds below, state its viability at 24 h, 1 µM.
I'd appreciate it if you wrote the number followed by its unit.

> print(dat)
                                   compound  result
1  CCC(CO)NS(=O)(=O)c1ccc(-n2nc(C)c3nc4nnnn4nc32)cc1 (stereo in doubt) [MM118]   88.2%

## Input Provide only the value of recorded viability at 24 h, 1 µM for CCC(CO)NS(=O)(=O)c1ccc(-n2nc(C)c3nc4nnnn4nc32)cc1 (stereo in doubt) [MM119]
## Output 90.7%
